# TEST: Circular dichroism, estimate of secondary structure
# Assay type: physicochemical
# CONDITION NOTES: CD, 100 µM peptide in water, principal component regression analysis
Non-standard residues stand in square brackets, D forms with d. Residues, ends and D or L forms follow the SMILES beside them. Dip = N[C@H](C(=O)O)C(c1ccccc1)c1ccccc1
RECORDED METRIC: Other (random coil) (%)
Please state the figure in %; there is no need to write the unit.

Param item = N=C(N)NCCC[C@@H]1NC(=O)[C@H](C(c2ccccc2)c2ccccc2)NC(=O)[C@H](CCCNC(=N)N)NC(=O)[C@H](C(c2ccccc2)c2ccccc2)NC(=O)[C@H](CCCNC(=N)N)NC(=O)[C@H](C(c2ccccc2)c2ccccc2)NC(=O)[C@H](CCCNC(=N)N)NC(=O)[C@H](C(c2ccccc2)c2ccccc2)NC(=O)[C@H](CCCNC(=N)N)NC(=O)[C@H](C(c2ccccc2)c2ccccc2)NC1=O [[DipR]5] (cyclo([Dip]R[Dip]R[Dip]R[Dip]R[Dip]R)) ; retrieve measured Other (random coil).
49.9

One more compound: N=C(N)NCCC[C@@H]1NC(=O)[C@H](Cc2c[nH]c3ccccc23)NC(=O)[C@H](CCCNC(=N)N)NC(=O)[C@H](Cc2c[nH]c3ccccc23)NC(=O)[C@H](CCCNC(=N)N)NC(=O)[C@H](C(c2ccccc2)c2ccccc2)NC(=O)[C@H](CCCNC(=N)N)NC(=O)[C@H](Cc2c[nH]c3ccccc23)NC(=O)[C@H](CCCNC(=N)N)NC(=O)[C@H](Cc2c[nH]c3ccccc23)NC1=O [[(DipR)(WR)4]]
40.5

One more compound: N=C(N)NCCC[C@@H]1NC(=O)[C@H](Cc2c[nH]c3ccccc23)NC(=O)[C@H](CCCNC(=N)N)NC(=O)[C@H](Cc2c[nH]c3ccccc23)NC(=O)[C@H](CCCNC(=N)N)NC(=O)[C@H](C(c2ccccc2)c2ccccc2)NC(=O)[C@H](CCCNC(=N)N)NC(=O)[C@H](C(c2ccccc2)c2ccccc2)NC(=O)[C@H](CCCNC(=N)N)NC(=O)[C@H](Cc2c[nH]c3ccccc23)NC1=O [[(DipR)2(WR)3]] (cyclo([Dip]R[Dip]RWRWRWR))
47.8

One more compound: N=C(N)NCCC[C@@H]1NC(=O)[C@H](Cc2c[nH]c3ccccc23)NC(=O)[C@H](CCCNC(=N)N)NC(=O)[C@H](C(c2ccccc2)c2ccccc2)NC(=O)[C@H](CCCNC(=N)N)NC(=O)[C@H](C(c2ccccc2)c2ccccc2)NC(=O)[C@H](CCCNC(=N)N)NC(=O)[C@H](C(c2ccccc2)c2ccccc2)NC(=O)[C@H](CCCNC(=N)N)NC(=O)[C@H](Cc2c[nH]c3ccccc23)NC1=O [[(DipR)3(WR)2]] (cyclo([Dip]R[Dip]R[Dip]RWRWR))
38.4

One more compound: N=C(N)NCCC[C@@H]1NC(=O)[C@H](Cc2c[nH]c3ccccc23)NC(=O)[C@H](CCCNC(=N)N)NC(=O)[C@H](C(c2ccccc2)c2ccccc2)NC(=O)[C@H](CCCNC(=N)N)NC(=O)[C@H](C(c2ccccc2)c2ccccc2)NC(=O)[C@H](CCCNC(=N)N)NC(=O)[C@H](C(c2ccccc2)c2ccccc2)NC(=O)[C@H](CCCNC(=N)N)NC(=O)[C@H](C(c2ccccc2)c2ccccc2)NC1=O [[(DipR)4(WR)]] (cyclo([Dip]R[Dip]R[Dip]R[Dip]RWR))
39.7
